B1: C22orf31 (parent)
chain: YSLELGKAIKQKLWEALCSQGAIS

# Variants of: B1
# assay: protein stability index of a GFP-peptide fusion (GPS, HEK-293T) (PSI 1-6); higher = more stable;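 also: lentivirally expressed fusions sorted by FACS into six bins by GFP to DsRed ratio, PSI derived from sequencing read proportions per bin multiplied by bin number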
# assay_context: c terminus: a fixed tail appended
Measured protein stability index, listed per entry.
Give your answer as a number; write no unit.

Past entries and their recorded results:
>  <variant_label>
S2Q

>  <endpoint_name>
protein stability index

>  <value_measured>
1.57

$$$$
>  <variant_label>
Q20P

>  <endpoint_name>
protein stability index

>  <value_measured>
2.21

$$$$

For record Q11G the listed protein stability index is 3.21

For record S2T the listed protein stability index is 2.86

For record K10H the listed protein stability index is 1.95

For record A8Y the listed protein stability index is 2.97
